# pIC50 per entry
# study_target: cIAP2-BIR3 (Homo sapiens)
# Construct: cIAP2-BIR3; Reaction Biology; APT-11-372
# Sequence (Q13489 238-349 limits assumed): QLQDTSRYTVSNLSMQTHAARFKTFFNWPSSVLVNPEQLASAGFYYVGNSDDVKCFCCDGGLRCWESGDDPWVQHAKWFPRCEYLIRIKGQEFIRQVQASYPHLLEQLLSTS
# procedure_text: cIAP2-BIR3 fluorescence polarization binding assay
# condition_notes: FP, probe AbuRPFK-5FAM, 60 min at 25° C.
pIC50: −log10 of the molar value.

Below: 3 molecules and their reported pIC50.
chemical_structure	readout_label	result
CN[C@@H](C)C(=O)N[C@@H](C)C(=O)N1C[C@@H](OCCC(=O)N2CCN(C(=O)CCO[C@H]3C[C@@H](C(=O)N[C@@H]4CCCc5ccccc54)N(C(=O)[C@H](C)NC(=O)[C@H](C)NC)C3)CC2)C[C@H]1C(=O)N[C@@H]1CCCc2ccccc21	pIC50	7.00 to 8.00
CN[C@@H](C)C(=O)N[C@H](C(=O)N1C[C@@H](OCCOCCO[C@H]2C[C@@H](C(=O)N[C@@H]3CCCc4ccccc43)N(C(=O)[C@@H](NC(=O)[C@H](C)NC)C3CCCCC3)C2)C[C@H]1C(=O)N[C@@H]1CCCc2ccccc21)C1CCCCC1	pIC50	8.00 to 10.00
CN[C@@H](C)C(=O)N[C@@H](C)C(=O)N1C[C@@H](OCCCN2CCN(CCCO[C@H]3C[C@@H](C(=O)N[C@@H]4CCCc5ccccc54)N(C(=O)[C@H](C)NC(=O)[C@H](C)NC)C3)CC2)C[C@H]1C(=O)N[C@@H]1CCCc2ccccc21	pIC50	7.00 to 8.00

Data request: Any idea what its pIC50 is? The molecule is `CN[C@@H](C)C(=O)N[C@H](C(=O)N1C[C@@H](OCCC(=O)N2CCN(C(=O)CCO[C@H]3C[C@@H](C(=O)N[C@@H]4CCCc5ccccc54)N(C(=O)[C@@H](NC(=O)[C@H](C)NC)C4CCCCC4)C3)CC2)C[C@H]1C(=O)N[C@@H]1CCCc2ccccc21)C1CCCCC1`
Data returned: 7.00 to 8.00

Data request: Any idea what its pIC50 is? The molecule is `CN[C@@H](C)C(=O)N[C@H](C(=O)N1CCC[C@H]1C(=O)N[C@@H]1CCCc2c1cccc2N1CCN(c2cccc3c2CCC[C@H]3NC(=O)[C@@H]2CCCN2C(=O)[C@@H](NC(=O)[C@H](C)NC)C2CCCCC2)CC1)C1CCCCC1`
Data returned: 7.00 to 8.00

Data request: Any idea what its pIC50 is? The molecule is `CN[C@@H](C)C(=O)N[C@H](C(=O)N1CCC[C@H]1C(=O)N[C@@H]1CCCc2c1cccc2N1CCN(c2cccc3c2CCC[C@H]3NC(=O)[C@@H]2CCCN2C(=O)[C@@H](NC(=O)[C@H](C)NC)C(C)C)CC1)C(C)C`
Data returned: 7.00 to 8.00

Data request: Any idea what its pIC50 is? The molecule is `CC[C@H](NC(=O)[C@H](C)NC)C(=O)N1CCC[C@H]1C(=O)N[C@@H]1CCCc2c1cccc2N1CCN(c2cccc3c2CCC[C@H]3NC(=O)[C@@H]2CCCN2C(=O)[C@H](CC)NC(=O)[C@H](C)NC)CC1`
Data returned: 7.00 to 8.00

Data request: Any idea what its pIC50 is? The molecule is `CN[C@@H](C)C(=O)N[C@H](C(=O)N1C[C@@H](OCCC(=O)N2CCN(C(=O)CCO[C@H]3C[C@@H](C(=O)N[C@@H]4CCCc5ccccc54)N(C(=O)[C@@H](NC(=O)[C@H](C)NC)C4CC4)C3)CC2)C[C@H]1C(=O)N[C@@H]1CCCc2ccccc21)C1CC1`
Data returned: 8.00 to 10.00
